Cited source for all entries: the supplement of paper PMC10126150

// reported switch fluorescence ratio per item
- Tested on: ATP;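 also: ATP exposure 15 min at 22 °C before imaging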
- assay_text: switch fluorescence ratio, 500 uM ATP over buffer (Cy3 cluster intensity, sum of 5 cycles each) (fold (ratio)); higher = stronger signal-on switching upon ATP binding; sequences stand for … in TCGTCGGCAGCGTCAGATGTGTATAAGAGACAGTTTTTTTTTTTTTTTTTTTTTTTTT…TC
- condition_details: aptamer strand: ATP DNA aptamer (quencher-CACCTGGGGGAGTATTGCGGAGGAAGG + anchor), 100 nM annealed; ATP concentration: 500 uM

- biopolymer_sequence: "TAGGTTGGTC"
  switch fluorescence ratio: 1.02
- biopolymer_sequence: "AAAGGACACA"
  switch fluorescence ratio: 1.06
- biopolymer_sequence: "GGGGTTGACG"
  switch fluorescence ratio: 0.964
- biopolymer_sequence: "GTTTGAGGGT"
  switch fluorescence ratio: 0.994
- biopolymer_sequence: "TGGGAATTCC"
  switch fluorescence ratio: 1
- biopolymer_sequence: "AAGGCGGGGC"
  switch fluorescence ratio: 0.981
- biopolymer_sequence: "AACAAACGGT"
  switch fluorescence ratio: 1.36
- biopolymer_sequence: "ATTTATATCC"
  switch fluorescence ratio: 1.02
- biopolymer_sequence: "AGTTAAGGGT"
  switch fluorescence ratio: 0.992
- biopolymer_sequence: "GAGGGAATGG"
  switch fluorescence ratio: 1.07
- biopolymer_sequence: "TTATAGATTG"
  switch fluorescence ratio: 1
- biopolymer_sequence: "TGAATCGGGA"
  switch fluorescence ratio: 0.99
- biopolymer_sequence: "GTGTTCTAGT"
  switch fluorescence ratio: 0.955
- biopolymer_sequence: "GTTGGGGATT"
  switch fluorescence ratio: 0.977
- biopolymer_sequence: "ATGAACTCAG"
  switch fluorescence ratio: 1.03
- biopolymer_sequence: "GAGCGCCCGT"
  switch fluorescence ratio: 1.01
- biopolymer_sequence: "TTGAATAGTT"
  switch fluorescence ratio: 0.998
- biopolymer_sequence: "TTTTATACGT"
  switch fluorescence ratio: 1.01
- biopolymer_sequence: "CGAATATGAT"
  switch fluorescence ratio: 1.02
- biopolymer_sequence: "AAGTTAATTT"
  switch fluorescence ratio: 0.998
- biopolymer_sequence: "TGGCGGAAGG"
  switch fluorescence ratio: 0.999
- biopolymer_sequence: "GAAGGAAAAG"
  switch fluorescence ratio: 0.992
- biopolymer_sequence: "TTTTTTGAAT"
  switch fluorescence ratio: 0.995
- biopolymer_sequence: "CAGAATTTAG"
  switch fluorescence ratio: 0.996
- biopolymer_sequence: "AAGGAATTTT"
  switch fluorescence ratio: 1.05
- biopolymer_sequence: "TGTTATTGTT"
  switch fluorescence ratio: 1.03
- biopolymer_sequence: "TTTGGGTTCT"
  switch fluorescence ratio: 1.03
- biopolymer_sequence: "TGGTGTTGGA"
  switch fluorescence ratio: 0.991
- biopolymer_sequence: "GGGTGTTCGT"
  switch fluorescence ratio: 1
- biopolymer_sequence: "TGGGTTATGG"
  switch fluorescence ratio: 0.972
- biopolymer_sequence: "TGCGTCTATT"
  switch fluorescence ratio: 1.05
- biopolymer_sequence: "AAAAAGATTT"
  switch fluorescence ratio: 1.05
- biopolymer_sequence: "CCGAGTGGGT"
  switch fluorescence ratio: 1.44
- biopolymer_sequence: "GGAAAATGTA"
  switch fluorescence ratio: 1.02
- biopolymer_sequence: "TTATGGTTAT"
  switch fluorescence ratio: 1.03
- biopolymer_sequence: "AAGATTCGCC"
  switch fluorescence ratio: 0.993
- biopolymer_sequence: "TTTTGTGTTG"
  switch fluorescence ratio: 0.996
- biopolymer_sequence: "GTTGTGGGAA"
  switch fluorescence ratio: 0.983
- biopolymer_sequence: "TTTGACGGGC"
  switch fluorescence ratio: 1.05
- biopolymer_sequence: "AGAGGGCAGG"
  switch fluorescence ratio: 0.995
- biopolymer_sequence: "AAATAAAATG"
  switch fluorescence ratio: 0.932
- biopolymer_sequence: "TTGTTGTTCC"
  switch fluorescence ratio: 1.08
- biopolymer_sequence: "CCCCTTGTGA"
  switch fluorescence ratio: 1.72

====

- System: ATP;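 also: ATP exposure 15 min at 22 °C before imaging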
- assay_text: switch fluorescence ratio, 500 uM ATP over buffer (Cy3 cluster intensity, sum of 5 cycles each) (fold (ratio)); higher = stronger signal-on switching upon ATP binding; sequences stand for … in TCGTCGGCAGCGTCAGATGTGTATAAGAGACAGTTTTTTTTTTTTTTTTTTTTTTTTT…TC
- condition_details: aptamer strand: ATP DNA aptamer (quencher-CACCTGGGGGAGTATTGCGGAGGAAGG + anchor), 100 nM annealed; ATP concentration: 500 uM
# label = Met if switch fluorescence ratio >= 1 else Not met

- biopolymer_sequence: "TTTTATCTTG"
  class_name: "Met"
- biopolymer_sequence: "GGCATTTTTG"
  class_name: "Met"
- biopolymer_sequence: "TTTTTGATAA"
  class_name: "Not met"
- biopolymer_sequence: "TCGTGTATGA"
  class_name: "Met"
- biopolymer_sequence: "AATAAAGGTT"
  class_name: "Met"
- biopolymer_sequence: "GTGAATTTGT"
  class_name: "Met"
- biopolymer_sequence: "TCAACGGGGG"
  class_name: "Met"
- biopolymer_sequence: "TGCCATTGTT"
  class_name: "Not met"
- biopolymer_sequence: "AGAGAGAAAG"
  class_name: "Not met"
- biopolymer_sequence: "CTGTTCCTTT"
  class_name: "Met"

====

// reported switch fluorescence ratio per item
- Test system: ATP;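 also: ATP exposure 15 min at 22 °C before imaging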
- assay_text: switch fluorescence ratio, 500 uM ATP over buffer (Cy3 cluster intensity, sum of 5 cycles each) (fold (ratio)); higher = stronger signal-on switching upon ATP binding; sequences stand for … in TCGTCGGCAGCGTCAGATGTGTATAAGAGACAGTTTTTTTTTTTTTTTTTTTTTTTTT…TC
- condition_details: aptamer strand: ATP DNA aptamer (quencher-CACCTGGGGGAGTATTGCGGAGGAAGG + anchor), 100 nM annealed; ATP concentration: 500 uM
result_type: switch fluorescence ratio

- biopolymer_sequence: "CATTCGTTGA"
  result_type: "switch fluorescence ratio"
  meas_value: 1.05
- biopolymer_sequence: "TAACTTTTCG"
  result_type: "switch fluorescence ratio"
  meas_value: 1
- biopolymer_sequence: "TGGTACCTTG"
  result_type: "switch fluorescence ratio"
  meas_value: 1.19
- biopolymer_sequence: "TGGGGTTAAT"
  result_type: "switch fluorescence ratio"
  meas_value: 0.997
- biopolymer_sequence: "ACTTGGGACT"
  result_type: "switch fluorescence ratio"
  meas_value: 1.04
- biopolymer_sequence: "CTGCTAGATG"
  result_type: "switch fluorescence ratio"
  meas_value: 0.983
- biopolymer_sequence: "AGCAATTTTT"
  result_type: "switch fluorescence ratio"
  meas_value: 1.1
- biopolymer_sequence: "AGCGATCGGT"
  result_type: "switch fluorescence ratio"
  meas_value: 1.03
- biopolymer_sequence: "AATCGCTAGC"
  result_type: "switch fluorescence ratio"
  meas_value: 1.02
- biopolymer_sequence: "AGATCGTTGT"
  result_type: "switch fluorescence ratio"
  meas_value: 0.978
- biopolymer_sequence: "ACATCAAGGG"
  result_type: "switch fluorescence ratio"
  meas_value: 1.06
- biopolymer_sequence: "ATTTAGGGAT"
  result_type: "switch fluorescence ratio"
  meas_value: 1.02
- biopolymer_sequence: "TTTGTCAGTA"
  result_type: "switch fluorescence ratio"
  meas_value: 0.989
- biopolymer_sequence: "GGTTATGAAT"
  result_type: "switch fluorescence ratio"
  meas_value: 1
- biopolymer_sequence: "GCATGGGGAC"
  result_type: "switch fluorescence ratio"
  meas_value: 1.05
- biopolymer_sequence: "GACATTTGTT"
  result_type: "switch fluorescence ratio"
  meas_value: 0.986
- biopolymer_sequence: "TTTTGATCAA"
  result_type: "switch fluorescence ratio"
  meas_value: 1.01
- biopolymer_sequence: "ATGGGGTGCT"
  result_type: "switch fluorescence ratio"
  meas_value: 0.986
- biopolymer_sequence: "ACTAGGGCAG"
  result_type: "switch fluorescence ratio"
  meas_value: 1.03
- biopolymer_sequence: "TGGGTTATTT"
  result_type: "switch fluorescence ratio"
  meas_value: 1
- biopolymer_sequence: "GCGGGGCCTG"
  result_type: "switch fluorescence ratio"
  meas_value: 0.993
- biopolymer_sequence: "CCCGGGTGAT"
  result_type: "switch fluorescence ratio"
  meas_value: 4
- biopolymer_sequence: "GCAGTTGGGG"
  result_type: "switch fluorescence ratio"
  meas_value: 0.998
- biopolymer_sequence: "AATATTCGTT"
  result_type: "switch fluorescence ratio"
  meas_value: 0.997
- biopolymer_sequence: "TAAGGACGGC"
  result_type: "switch fluorescence ratio"
  meas_value: 1.06
- biopolymer_sequence: "AGGTTTAGTC"
  result_type: "switch fluorescence ratio"
  meas_value: 0.995
- biopolymer_sequence: "ACTAATGGCT"
  result_type: "switch fluorescence ratio"
  meas_value: 1.01
- biopolymer_sequence: "TTAGGTATTA"
  result_type: "switch fluorescence ratio"
  meas_value: 0.991
- biopolymer_sequence: "TATATGACGG"
  result_type: "switch fluorescence ratio"
  meas_value: 0.997
- biopolymer_sequence: "GGGGTTTGAA"
  result_type: "switch fluorescence ratio"
  meas_value: 0.984
- biopolymer_sequence: "GAGTCAACGG"
  result_type: "switch fluorescence ratio"
  meas_value: 1.03
- biopolymer_sequence: "AAGGGTATGT"
  result_type: "switch fluorescence ratio"
  meas_value: 0.981
- biopolymer_sequence: "TTTTTCAGCT"
  result_type: "switch fluorescence ratio"
  meas_value: 1.02
- biopolymer_sequence: "CAGATTCTGT"
  result_type: "switch fluorescence ratio"
  meas_value: 0.973
- biopolymer_sequence: "TTGTGGTTCC"
  result_type: "switch fluorescence ratio"
  meas_value: 1.08
- biopolymer_sequence: "GGAGGGATGG"
  result_type: "switch fluorescence ratio"
  meas_value: 1.13
- biopolymer_sequence: "AAAGGCCCCC"
  result_type: "switch fluorescence ratio"
  meas_value: 1
- biopolymer_sequence: "TGAATATAGT"
  result_type: "switch fluorescence ratio"
  meas_value: 1
- biopolymer_sequence: "ACGAAATGAC"
  result_type: "switch fluorescence ratio"
  meas_value: 1.68
- biopolymer_sequence: "CAAGAGGGAC"
  result_type: "switch fluorescence ratio"
  meas_value: 1.04
- biopolymer_sequence: "TCTTACGATC"
  result_type: "switch fluorescence ratio"
  meas_value: 1
- biopolymer_sequence: "GGTGTAGAAC"
  result_type: "switch fluorescence ratio"
  meas_value: 1
- biopolymer_sequence: "TTAGTGAGCG"
  result_type: "switch fluorescence ratio"
  meas_value: 1.03
